measured_target: human FAP (Homo sapiens)
Construct: purchased BPS Bioscience 80100
Sequence (Q12884 whole entry): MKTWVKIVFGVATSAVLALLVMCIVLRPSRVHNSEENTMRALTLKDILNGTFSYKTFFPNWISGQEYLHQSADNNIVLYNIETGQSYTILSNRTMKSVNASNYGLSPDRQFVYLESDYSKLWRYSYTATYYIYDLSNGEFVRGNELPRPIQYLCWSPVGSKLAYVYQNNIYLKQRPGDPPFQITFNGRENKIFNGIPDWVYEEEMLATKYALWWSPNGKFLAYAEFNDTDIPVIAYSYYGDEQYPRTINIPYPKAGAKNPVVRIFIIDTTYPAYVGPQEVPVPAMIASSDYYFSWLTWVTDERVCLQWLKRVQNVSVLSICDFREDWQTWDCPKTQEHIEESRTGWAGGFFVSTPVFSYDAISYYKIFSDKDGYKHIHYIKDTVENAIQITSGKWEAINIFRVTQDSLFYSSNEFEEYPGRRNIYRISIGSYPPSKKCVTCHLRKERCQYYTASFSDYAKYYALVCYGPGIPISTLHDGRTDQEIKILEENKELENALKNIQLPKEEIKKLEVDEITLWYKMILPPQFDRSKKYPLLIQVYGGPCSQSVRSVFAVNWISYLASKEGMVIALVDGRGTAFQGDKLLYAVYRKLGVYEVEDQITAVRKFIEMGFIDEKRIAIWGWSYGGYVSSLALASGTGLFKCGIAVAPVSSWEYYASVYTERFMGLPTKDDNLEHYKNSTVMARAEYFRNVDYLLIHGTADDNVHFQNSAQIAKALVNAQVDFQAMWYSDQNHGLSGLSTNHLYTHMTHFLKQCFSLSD
assay_method_text: In vitro fluorescence enzymatic inhibition assay, FAP
Assay type: biochemical
condition_set: recombinant FAP, fluorogenic DPP substrate 1, n = 3
property: pIC50
Keep it numeric: pIC50 is minus log10 of the concentration in mol/L.

Enquiry: Which measured pIC50 value corresponds to [^natGa]Ga-OncoFAP-DOTAGA [^natGa-OncoFAP] ?
Return: 9.29
